Source listed as ChEMBL document CHEMBL6083271.

- System: SIG-M5
- experimental-protocol: Antiproliferative activity against human SIG-M5 cells assessed as inhibition of cell growth measured after 4 days by WST-8 assay
- Assay type: functional, cell-based
- particulars: SIG-M5, 96 h
recorded-metric: IC50 (µM)
Answer with a number only, understood to be in µM.

{"columns": ["compound", "IC50 [µM]"],
 "data": [
  ["O=C1CCC(N2Cc3c(C#CC4CCN(C(=O)c5ccc(NC(=O)[C@@H]6NC7(CCCCC7)[C@@]7(C(=O)Nc8cc(Cl)ccc87)[C@H]6c6cccc(Cl)c6F)cc5)CC4)cccc3C2=O)C(=O)N1 (some centres not stated)", 0.103]
]}

Now for a further compound.
Item: O=C1CCC(N2Cc3c(C#CC4CCN(C(=O)[C@H]5CC[C@H](NC(=O)[C@@H]6NC7(CCCCC7)[C@@]7(C(=O)Nc8cc(Cl)ccc87)[C@H]6c6cccc(Cl)c6F)CC5)CC4)cccc3C2=O)C(=O)N1 (some centres not stated) | IC50: 0.02
